# System: SMMC-7721
# experimentNotes: Cytotoxicity against human SMMC7721 cells after 72 hrs in presence of 20% O2 by MTT assay
# Type: functional, cell-based
# appliedConditions: SMMC-7721, 72 h

structureNotation	IC50
CCS(=O)(=O)c1c(-c2ccc(Br)cc2)[n+]([O-])c2cc(C)ccc2[n+]1[O-]	< 10 µM

###

# experimentNotes: Half life in guinea pig plasma
# Type: ADME, cell-free, Cavia porcellus

structureNotation	half-life [min]
CC(C)OC(=O)N1CCN(c2ncc(-c3ccc4nccnc4c3)cc2C#N)CC1	4.02

###

# testedSystem: Epidermal growth factor receptor (Homo sapiens, UniProt P00533)
# Sequence (P00533 whole entry): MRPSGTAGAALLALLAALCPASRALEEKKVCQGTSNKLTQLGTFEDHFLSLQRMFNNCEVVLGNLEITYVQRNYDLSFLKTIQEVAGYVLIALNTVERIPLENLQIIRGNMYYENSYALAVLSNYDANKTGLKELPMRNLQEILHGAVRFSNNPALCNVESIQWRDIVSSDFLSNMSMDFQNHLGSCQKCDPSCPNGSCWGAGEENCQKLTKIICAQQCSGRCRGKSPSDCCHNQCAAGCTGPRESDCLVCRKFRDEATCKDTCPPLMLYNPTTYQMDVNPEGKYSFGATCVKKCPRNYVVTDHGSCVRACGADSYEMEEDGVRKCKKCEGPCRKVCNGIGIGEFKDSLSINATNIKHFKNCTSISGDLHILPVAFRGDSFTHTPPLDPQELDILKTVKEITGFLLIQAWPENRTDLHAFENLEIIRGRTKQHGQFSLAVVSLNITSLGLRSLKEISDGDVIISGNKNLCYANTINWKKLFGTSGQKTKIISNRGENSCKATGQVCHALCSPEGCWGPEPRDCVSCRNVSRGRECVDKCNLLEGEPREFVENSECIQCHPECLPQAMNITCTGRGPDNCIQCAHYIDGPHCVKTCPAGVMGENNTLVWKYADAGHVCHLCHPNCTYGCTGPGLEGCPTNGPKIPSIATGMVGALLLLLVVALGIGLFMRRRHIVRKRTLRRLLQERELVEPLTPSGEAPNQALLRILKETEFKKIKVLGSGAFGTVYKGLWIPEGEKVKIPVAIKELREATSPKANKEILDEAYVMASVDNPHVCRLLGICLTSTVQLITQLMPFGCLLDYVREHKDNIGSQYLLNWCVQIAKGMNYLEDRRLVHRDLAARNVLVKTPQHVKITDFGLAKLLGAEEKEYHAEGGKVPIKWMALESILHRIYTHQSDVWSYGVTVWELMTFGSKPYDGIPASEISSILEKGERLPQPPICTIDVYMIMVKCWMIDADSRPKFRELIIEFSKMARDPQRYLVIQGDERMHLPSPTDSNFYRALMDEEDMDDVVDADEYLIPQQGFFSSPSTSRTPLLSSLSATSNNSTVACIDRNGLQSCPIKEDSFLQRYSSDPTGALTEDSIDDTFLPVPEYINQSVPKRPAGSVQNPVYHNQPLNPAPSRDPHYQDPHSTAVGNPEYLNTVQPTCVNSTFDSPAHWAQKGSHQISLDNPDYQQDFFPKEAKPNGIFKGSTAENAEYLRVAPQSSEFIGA
# experimentNotes: Inhibition of EGFR in human A431 cells incubated for 2 hrs followed by EGF stimulation and measured after 10 mins by immunoblot assay
pIC50: −log10 of the molar value.

structureNotation	pIC50
Cc1nc2cc3nc(-c4cccs4)cnc3cc2n1C	< 4.52

###

# experimentNotes: Inhibition of PDGFR in mouse NIH/3T3 cells assessed as reduction in tyrosine phosphorylation incubated for 2 hrs by SDS-PAGE based immunoblot assay
# Type: cell-based
# appliedConditions: NIH3T3, 2 h
pIC50: −log10 of the molar value.

structureNotation	pIC50
Cc1nc2cc3nc(-c4cccs4)cnc3cc2n1C	6.10

###

# Test system: HUVEC
# experimentNotes: Antiangiogenic activity in HUVEC after 24 hrs by MTT assay
# Type: functional, cell-based
# appliedConditions: Homo sapiens

structureNotation	censoringQualifier	IC50 [µM]
Cc1cc2ncc(-c3ccc(O)c(O)c3)nc2cc1C	=	24.7
COc1ccc(-c2cnc3cc(C)c(C)cc3n2)cc1O	>	100
CC(=O)Oc1ccc(-c2cnc3cc(C)c(C)cc3n2)cc1O	=	54.4
Cc1cc2ncc(-c3ccc(OCc4ccccc4)c(O)c3)nc2cc1C	>	100

###

# testedSystem: Proto-oncogene tyrosine-protein kinase Src (Mus musculus)
# Sequence (P05480 2-535 limits assumed): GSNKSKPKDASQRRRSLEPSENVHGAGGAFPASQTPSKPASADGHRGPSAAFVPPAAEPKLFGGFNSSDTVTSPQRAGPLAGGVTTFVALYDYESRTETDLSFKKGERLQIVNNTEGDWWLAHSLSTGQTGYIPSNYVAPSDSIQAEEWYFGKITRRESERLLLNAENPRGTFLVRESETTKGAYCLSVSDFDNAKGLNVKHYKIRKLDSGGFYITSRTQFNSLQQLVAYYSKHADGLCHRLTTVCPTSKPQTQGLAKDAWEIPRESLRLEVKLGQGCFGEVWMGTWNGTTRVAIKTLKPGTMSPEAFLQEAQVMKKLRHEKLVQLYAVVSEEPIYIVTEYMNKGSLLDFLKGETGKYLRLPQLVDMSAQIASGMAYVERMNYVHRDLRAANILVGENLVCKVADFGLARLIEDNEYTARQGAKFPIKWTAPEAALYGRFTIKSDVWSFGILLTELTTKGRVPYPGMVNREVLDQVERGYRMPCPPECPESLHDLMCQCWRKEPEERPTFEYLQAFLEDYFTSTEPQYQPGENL
# experimentNotes: Inhibition of SRC in transformed mouse NIH3T3 cells by SDS-PAGE based immunoblot assay
pIC50: −log10 of the molar value.

structureNotation	pIC50
Cc1nc2cc3nc(-c4cccs4)cnc3cc2n1C	< 4.52

###

# System: SGC-7901
# experimentNotes: Cytotoxicity against human SGC7901 cells after 72 hrs in presence of 20% O2 by MTT assay
# Assay type: functional, cell-based
# appliedConditions: SGC-7901, 72 h

structureNotation	IC50
CCS(=O)(=O)c1c(-c2ccc(Br)cc2)[n+]([O-])c2cc(C)ccc2[n+]1[O-]	< 10 µM

###

# testedSystem: UniProtKB P09619
# Sequence (P09619 whole entry): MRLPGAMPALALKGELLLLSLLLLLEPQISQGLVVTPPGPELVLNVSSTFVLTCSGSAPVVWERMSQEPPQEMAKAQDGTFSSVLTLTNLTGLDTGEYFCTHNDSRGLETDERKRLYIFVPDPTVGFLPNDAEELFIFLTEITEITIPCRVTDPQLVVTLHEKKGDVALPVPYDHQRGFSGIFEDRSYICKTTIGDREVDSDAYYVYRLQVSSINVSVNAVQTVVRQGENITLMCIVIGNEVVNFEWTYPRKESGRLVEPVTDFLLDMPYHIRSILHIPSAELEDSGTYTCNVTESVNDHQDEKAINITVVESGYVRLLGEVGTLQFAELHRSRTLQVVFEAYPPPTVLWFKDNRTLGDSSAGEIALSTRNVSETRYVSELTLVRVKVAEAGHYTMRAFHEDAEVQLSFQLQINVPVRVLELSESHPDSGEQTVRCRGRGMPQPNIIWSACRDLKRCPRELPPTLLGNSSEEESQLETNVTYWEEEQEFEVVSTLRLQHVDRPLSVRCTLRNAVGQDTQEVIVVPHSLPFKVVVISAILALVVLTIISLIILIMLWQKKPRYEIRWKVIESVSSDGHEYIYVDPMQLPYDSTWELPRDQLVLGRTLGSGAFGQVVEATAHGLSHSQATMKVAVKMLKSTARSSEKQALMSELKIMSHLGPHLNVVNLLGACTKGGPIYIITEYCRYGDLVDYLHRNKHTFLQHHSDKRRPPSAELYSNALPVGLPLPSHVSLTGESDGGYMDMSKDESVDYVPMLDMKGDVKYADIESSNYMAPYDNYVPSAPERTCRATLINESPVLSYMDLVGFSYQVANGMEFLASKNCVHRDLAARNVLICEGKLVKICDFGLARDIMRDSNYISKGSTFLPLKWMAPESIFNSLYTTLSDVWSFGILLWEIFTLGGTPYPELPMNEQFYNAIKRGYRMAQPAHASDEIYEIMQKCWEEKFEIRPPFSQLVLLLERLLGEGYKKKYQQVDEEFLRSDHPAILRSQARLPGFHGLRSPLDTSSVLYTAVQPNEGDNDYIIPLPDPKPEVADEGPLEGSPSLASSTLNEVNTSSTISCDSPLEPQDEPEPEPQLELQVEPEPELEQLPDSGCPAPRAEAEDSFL
measureName: IC50 (nM)

structureNotation	testedSystem	measuredNumber
Cc1nc2cc3nc(-c4cccs4)cnc3cc2n1C	UniProtKB P09619	90

###

# experimentNotes: Half life in rat plasma
# Format: ADME, cell-free

structureNotation	half-life
CC(C)OC(=O)N1CCN(c2ncc(-c3ccc4nccnc4c3)cc2C#N)CC1	16.7 min

###

# testedSystem: Receptor-type tyrosine-protein kinase FLT3 (Homo sapiens, UniProt P36888)
# Sequence (P36888 whole entry): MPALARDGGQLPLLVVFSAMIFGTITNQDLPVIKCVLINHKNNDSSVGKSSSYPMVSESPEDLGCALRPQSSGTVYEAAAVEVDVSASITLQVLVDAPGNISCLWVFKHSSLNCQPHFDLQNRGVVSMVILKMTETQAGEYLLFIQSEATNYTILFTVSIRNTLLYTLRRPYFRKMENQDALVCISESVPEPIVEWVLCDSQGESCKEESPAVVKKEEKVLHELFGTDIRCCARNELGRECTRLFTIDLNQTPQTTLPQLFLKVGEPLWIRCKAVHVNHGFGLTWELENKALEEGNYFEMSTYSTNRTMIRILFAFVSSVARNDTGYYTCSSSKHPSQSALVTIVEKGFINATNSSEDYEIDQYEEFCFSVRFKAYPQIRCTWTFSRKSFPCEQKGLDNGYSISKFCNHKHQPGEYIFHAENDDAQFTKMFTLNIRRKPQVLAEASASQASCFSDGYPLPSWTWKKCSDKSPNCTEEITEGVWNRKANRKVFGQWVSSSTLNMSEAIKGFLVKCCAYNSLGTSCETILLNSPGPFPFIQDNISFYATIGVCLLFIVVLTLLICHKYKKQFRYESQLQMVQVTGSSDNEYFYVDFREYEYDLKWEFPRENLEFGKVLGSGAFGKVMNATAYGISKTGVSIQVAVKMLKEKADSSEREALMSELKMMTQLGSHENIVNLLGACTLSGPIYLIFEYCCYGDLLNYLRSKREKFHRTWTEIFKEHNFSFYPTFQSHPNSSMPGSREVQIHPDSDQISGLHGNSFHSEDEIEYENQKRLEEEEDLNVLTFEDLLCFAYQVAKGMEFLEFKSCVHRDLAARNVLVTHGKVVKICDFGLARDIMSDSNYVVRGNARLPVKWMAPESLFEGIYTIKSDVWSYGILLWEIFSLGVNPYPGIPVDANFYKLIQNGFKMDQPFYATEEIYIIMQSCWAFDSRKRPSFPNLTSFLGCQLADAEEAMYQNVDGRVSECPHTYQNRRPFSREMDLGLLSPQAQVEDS
# experimentNotes: Inhibition of human FLT3 expressed in mouse BAF3 cells assessed as reduction in […] incubated for 2 hrs followed by FLT3 ligand stimulation by immunoblot analysis
pIC50: −log10 of the molar value.

structureNotation	testedSystem	pIC50
Cc1nc2cc3nc(-c4cccs4)cnc3cc2n1C	Receptor-type tyrosine-protein kinase FLT3 (Homo sapiens, UniProt P36888)	5.52 to 6.00
